Target: PON1 (Rattus norvegicus)
Construct: gender-mixed liver microsomes or plasma from rats and humans; tissue Corning (male) and Sigma-Aldrich (female), pooled; host or cells: Sprague-Dawley rat liver microsomes, gender-mixed
Sequence (P55159 whole entry): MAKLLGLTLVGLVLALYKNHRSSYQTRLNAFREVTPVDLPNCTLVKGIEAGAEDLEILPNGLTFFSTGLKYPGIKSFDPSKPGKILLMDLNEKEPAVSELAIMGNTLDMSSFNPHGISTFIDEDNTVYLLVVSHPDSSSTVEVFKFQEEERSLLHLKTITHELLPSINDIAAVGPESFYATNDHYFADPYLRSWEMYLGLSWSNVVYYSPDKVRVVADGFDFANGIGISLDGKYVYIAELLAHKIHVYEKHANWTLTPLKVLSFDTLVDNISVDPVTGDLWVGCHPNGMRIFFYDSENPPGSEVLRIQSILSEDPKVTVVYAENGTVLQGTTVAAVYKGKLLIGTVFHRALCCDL
Experiment: in vitro
Assay type: in vitro ADME
Conditions: both sexes, Sprague-Dawley, pH 7.4; rat liver microsomes, gender-mixed; read-out: Km, FNO to MNP (PON1-catalyzed), liver
MEASUREMENT TYPE: Km (mM)
Give bare numbers, in mM.

query: Query Km for "COP(=O)(OC)Oc1ccc([N+](=O)[O-])c(C)c1"
result: 4.53

###

System: CYP450s
Assay: in vitro
Assay type: in vitro ADME
Conditions: both sexes, Sprague-Dawley, rat, pH 7.4, rat liver microsomes, gender-mixed; read-out: Km, FNT to FNO (CYP450s-catalyzed)
MEASUREMENT TYPE: Km (µM)
Answers are plain numbers, in µM.

query: Give Km only, for "COP(=S)(OC)Oc1ccc([N+](=O)[O-])c(C)c1" , using CYP450s data.
result: 8.28

###

Molecular target: recombinant human AChE (Homo sapiens, UniProt P22303)
Sequence (P22303 32-614): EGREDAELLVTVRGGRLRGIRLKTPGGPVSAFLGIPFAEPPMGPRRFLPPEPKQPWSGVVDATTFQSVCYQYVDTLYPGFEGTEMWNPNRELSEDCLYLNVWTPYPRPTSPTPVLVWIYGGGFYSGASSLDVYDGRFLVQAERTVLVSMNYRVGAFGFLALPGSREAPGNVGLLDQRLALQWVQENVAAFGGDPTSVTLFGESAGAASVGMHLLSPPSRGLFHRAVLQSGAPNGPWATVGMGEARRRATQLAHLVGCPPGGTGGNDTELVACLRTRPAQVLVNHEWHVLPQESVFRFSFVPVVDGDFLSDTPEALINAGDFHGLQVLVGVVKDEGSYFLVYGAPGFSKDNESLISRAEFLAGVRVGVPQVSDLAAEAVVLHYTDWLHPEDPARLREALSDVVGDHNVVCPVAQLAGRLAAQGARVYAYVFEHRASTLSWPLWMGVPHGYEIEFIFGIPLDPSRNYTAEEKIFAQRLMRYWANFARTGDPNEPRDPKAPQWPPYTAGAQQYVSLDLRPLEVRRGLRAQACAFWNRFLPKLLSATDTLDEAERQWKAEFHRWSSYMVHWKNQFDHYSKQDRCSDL
Assay: In vitro AChE inhibition assay with recombinant human AChE in low-protein medium
So I've got a bunch of compounds here, and I need their IC50 values.
One number for each entry, in µM.

* COP(=S)(OC)Oc1ccc([N+](=O)[O-])c(C)c1 | 30.9

Now turn to the next compound.
query: Query IC50 for "COP(=O)(OC)Oc1ccc([N+](=O)[O-])c(C)c1"
result: 0.25

###

Molecular target: rat erythrocyte AChE (Rattus norvegicus, UniProt P37136)
Construct: tissue Innovative Research Inc. (Novi, MI, USA)
Assay: In vitro AChE inhibition assay with rat blood
Description: Inhibition of rat and human erythrocyte AChE by FNT and FNO was determined using rat and human blood. […] Inhibition of rat and human erythrocyte AChE by FNT and FNO was determined using the protocol from Kasteel et al. (2021). […] Absorbance at 436 nm was measured continuously for 60 min and 10 min to detect […]
MEASUREMENT TYPE: pIC50
One number for each entry, as −log10 of the molar value.

query: Query pIC50 for "COP(=O)(OC)Oc1ccc([N+](=O)[O-])c(C)c1"
result: 6.02

###

Test system: CYP450s
Test: in vitro
Format: in vitro ADME, human
Conditions: both sexes, human, pH 7.4, human liver microsomes, gender-mixed; read-out: Km, FNT to FNO (CYP450s-catalyzed)
MEASUREMENT TYPE: Km (µM)
Give bare numbers, in µM.

query: Query Km for "COP(=S)(OC)Oc1ccc([N+](=O)[O-])c(C)c1"
result: 21.6

###

So I've got a bunch of compounds here, and I need their IC50 values.
Molecular target: self-prepared rat erythrocyte AChE (Rattus norvegicus, UniProt P37136)
Construct: rat erythrocyte AChE was prepared from rat whole; tissue BioIVT (West Sussex, UK); erythrocyte AChE prepared in house
Sequence (P37136 other isoform, or with tags, fused parts or gaps): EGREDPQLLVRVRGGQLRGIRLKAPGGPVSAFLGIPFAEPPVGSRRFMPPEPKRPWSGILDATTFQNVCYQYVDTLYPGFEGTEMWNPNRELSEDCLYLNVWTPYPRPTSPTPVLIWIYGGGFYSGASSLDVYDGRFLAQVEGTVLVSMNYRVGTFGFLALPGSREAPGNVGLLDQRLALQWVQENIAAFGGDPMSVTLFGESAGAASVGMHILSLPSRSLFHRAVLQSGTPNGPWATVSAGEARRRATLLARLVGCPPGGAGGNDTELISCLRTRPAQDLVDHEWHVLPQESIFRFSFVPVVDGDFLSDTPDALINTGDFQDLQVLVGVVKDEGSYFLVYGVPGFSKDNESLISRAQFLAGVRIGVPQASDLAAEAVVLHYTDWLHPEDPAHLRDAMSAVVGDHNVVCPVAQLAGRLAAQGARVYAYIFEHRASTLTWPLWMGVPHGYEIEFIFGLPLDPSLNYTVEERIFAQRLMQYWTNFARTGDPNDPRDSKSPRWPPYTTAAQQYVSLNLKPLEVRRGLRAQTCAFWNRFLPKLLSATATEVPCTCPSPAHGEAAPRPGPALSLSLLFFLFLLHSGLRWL
Assay: In vitro AChE inhibition assay with self-prepared rat erythrocyte AChE in low-protein medium
Give bare numbers, in µM.

- COP(=O)(OC)Oc1ccc([N+](=O)[O-])c(C)c1: 0.18

Now turn to the next compound.
query: Query IC50 for "COP(=S)(OC)Oc1ccc([N+](=O)[O-])c(C)c1"
result: 8.24
